# target: T1, human CEACAM5 (human, UniProt P06731 35-685)
# T1 construct: whole, on cells; Target on MKN-45 (DSMZ ACC409) and LS180 (ATCC CL-187) cells; also called carcinoembryonic antigen-related cell adhesion molecule 5; CD66e
# T1 sequence (looked up): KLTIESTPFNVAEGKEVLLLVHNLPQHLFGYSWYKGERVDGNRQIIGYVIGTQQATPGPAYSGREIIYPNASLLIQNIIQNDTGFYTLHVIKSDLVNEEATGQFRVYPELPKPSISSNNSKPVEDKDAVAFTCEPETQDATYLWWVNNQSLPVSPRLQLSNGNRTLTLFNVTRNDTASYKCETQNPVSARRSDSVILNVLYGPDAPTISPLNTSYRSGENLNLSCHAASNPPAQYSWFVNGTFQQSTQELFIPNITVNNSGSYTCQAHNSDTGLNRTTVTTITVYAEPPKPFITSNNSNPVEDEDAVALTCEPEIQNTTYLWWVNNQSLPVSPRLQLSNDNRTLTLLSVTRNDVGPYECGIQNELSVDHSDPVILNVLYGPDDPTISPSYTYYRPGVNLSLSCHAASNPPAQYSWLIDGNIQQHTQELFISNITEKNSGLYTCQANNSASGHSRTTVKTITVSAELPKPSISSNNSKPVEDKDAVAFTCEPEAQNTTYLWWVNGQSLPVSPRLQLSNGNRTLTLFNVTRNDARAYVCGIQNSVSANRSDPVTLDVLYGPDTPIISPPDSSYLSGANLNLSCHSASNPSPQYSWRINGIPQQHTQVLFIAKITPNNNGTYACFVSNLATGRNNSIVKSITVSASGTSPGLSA
# experiment description: FACS on MKN-45 cells expressing human CEACAM5
The following binders are listed with their measured EC50 values.
Number only, in µg/mL; omit the unit.

Problem: // returns reported EC50 for input P1AH2349 (antibody, human IgG1, V domains shown, also called rehumanized improved expression variant) VH: EVQLVESGGGLVQPGGSLRLSCAASGFNIKDTYMHWVRQAPGKGLEWVGRIDPANGNSKYADSVKGRFTISADTSKNTAYLQMNSLRAEDTAVYYCAPFGYYVSDYAMAYWGQGTTVTVSS VL: EIVLTQSPATLSLSPGERATLSCRAGESVDIFGVGFLHWYQQKPGQAPRLLIYRASNRATGIPARFSGSGSGTDFTLTISSLEPEDFAVYYCQQTNEDPYTFGQGTKLEIK
Result: 1.11

Switching to the query record.
Problem: // returns reported EC50 for input P1AI5018 (antibody, human IgG1, V domains shown) VH: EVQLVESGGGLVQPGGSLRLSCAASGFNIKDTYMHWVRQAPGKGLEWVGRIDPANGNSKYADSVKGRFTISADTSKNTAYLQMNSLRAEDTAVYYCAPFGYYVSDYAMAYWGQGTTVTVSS VL: EIVLTQSPATLSLSPGERATLSCRAGESVDIFGVGFLHWYQQKPGQAPRLLIYRGSNRATGIPARFSGSGSGTDFTLTISSLEPEDFAVYYCQQTTEYPYTFGQGTKLEIK
Result: 0.65
